B1: PKD2L1 (parent)
chain: VFIFYYVVEEILELHIHRLRYLSS

variants of: B1; test: protein stability index of a GFP-peptide fusion (GPS, HEK-293T) (PSI 1-6); higher = more stable; conditions: c terminus: a fixed tail appended;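 further: lentivirally expressed fusions sorted by FACS into six bins by GFP to DsRed ratio, PSI derived from sequencing read proportions per bin multiplied by bin number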
I'd appreciate it if you could label each record using protein stability index and these ranges: I: < 2; II: ≥ 2 and < 3; III: ≥ 3

VFIGYYVVEEILELHIHRLRYLSS [F4G]
III
VFIFYHVVEEILELHIHRLRYLSS [Y6H]
II
VFIFYYVVEEILEKHIHRLRYLSS [L14K]
II
VFIFYYVVEEILELPIHRLRYLSS [H15P]
III
VFIFYYVVGEILELHIHRLRYLSS [E9G]
I
VFIFYYVVEHILELHIHRLRYLSS [E10H]
II
VFIFYYVVEEILELHIHRLRYLNS [S23N]
I
VFIFYDVVEEILELHIHRLRYLSS [Y6D]
II
VFIVYYVVEEILELHIHRLRYLSS [F4V]
III
VFIFYYVVEEIAELHIHRLRYLSS [L12A]
II

Which category fits this record: VFIFYYVNEEILELHIHRLRYLSS [V8N] II

Which category fits this record: VFIFYYVVEEIMELHIHRLRYLSS [L12M] II

Which category fits this record: VFIFGYVVEEILELHIHRLRYLSS [Y5G] I

Which category fits this record: VFIMYYVVEEILELHIHRLRYLSS [F4M] II

Which category fits this record: VFIFYYVVEEDLELHIHRLRYLSS [I11D] II

Which category fits this record: VFIFYYVVEEILPLHIHRLRYLSS [E13P] II
